FYI, the data here is from patent US20240301062A1.

# target.desc: T1, human claudin 6 (CLDN6) (human, UniProt P56747 1-220)
# T1 construct: also called human CLDN6; hCLDN6
# T1 sequence: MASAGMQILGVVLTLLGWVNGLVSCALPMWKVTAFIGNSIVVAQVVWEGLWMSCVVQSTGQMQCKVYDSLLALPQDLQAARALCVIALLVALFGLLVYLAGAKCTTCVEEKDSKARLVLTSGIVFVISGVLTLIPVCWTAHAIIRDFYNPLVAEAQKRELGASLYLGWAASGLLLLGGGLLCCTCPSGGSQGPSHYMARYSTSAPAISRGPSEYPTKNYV
# protocol.details: FACS, PA-1 cells (endogenous CLDN6)
readout.type: EC50
Returns: string containing the numeric result and its unit.

Worked examples follow.
BG87P-23 (antibody, V domains shown) VH: QIQLVQSGAEVKKPGASVKVSCKASGYSFTDYHINWVRQAPGQRLEWMGWIYPGSGYTKYNEKFKGRVTITRDTSASTAYMELSSLRSEDTAVYYCARSGIYHYVSSYYFDHWGKGTTVTVSS VL: DIQMTQSPSTLSASVGDRVTITCKASQDVGTAVAWYQQKPGKAPKLLIYWASTRHTGVPSRFSGSGSGTEFTLTISSLQPDDFATYYCQQYSSYTFGGGTKVEIK
2.49 nM
BG87P-27 (antibody, V domains shown) VH: QVQLVQSGAEVKKPGASVKVSCKASGYSFTDYHINWVRQAPGQRLEWMGWIYPGSGYTKYNEKFKGRVTLTRDTSASTAYMELSSLRSEDTAVYFCARSGIYHYVSSYYFDHWGKGTTVTVSS VL: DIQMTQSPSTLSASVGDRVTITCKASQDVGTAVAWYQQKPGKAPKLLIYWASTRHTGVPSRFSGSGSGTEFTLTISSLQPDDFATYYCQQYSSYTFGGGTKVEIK
1.68 nM
chimeric BG87P antibody (chBG87P) (antibody, V domains shown) VH: QIQLQQSGPELVKPGASVKISCKASGYSFTDYHINWVKQRPGQGLEWIGWIYPGSGYTKYNEKFKVKATLTVDTSSSTAYMHLTSLTSEDSAVYFCARSGIYHYVSSYYFDHWGQGTTLTVSS VL: DIVMTQSHTFMSTSVGDRVSITCKASQDVGTAVAWYQQKPGQSPKLLIYWASTRHTGVPDRFTGSGSGTDFTLTISNVQSEDLADYFCQQYSSYTFGGGTKLEIK
8.33 nM
BG87P-25 (antibody, V domains shown) VH: QIQLVQSGAEVKKPGASVKVSCKASGYSFTDYHINWVRQAPGQRLEWMGWIYPGSGYTKYNEKFKGRVTLTRDTSASTAYMELSSLRSEDTAVYYCARSGIYHYVSSYYFDHWGKGTTVTVSS VL: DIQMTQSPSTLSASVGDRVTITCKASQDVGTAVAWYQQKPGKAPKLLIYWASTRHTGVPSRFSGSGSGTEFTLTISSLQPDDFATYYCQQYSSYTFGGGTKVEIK
2.34 nM
BG87P-z0 (antibody, V domains shown) VH: QVQLVQSGAEVKKPGASVKVSCKASGYTFTDYHINWVRQAPGQRLEWMGWIYPGSGYTKYNEKFKVRVTITRDTSASTAYMELSSLRSEDTAVYYCARSGIYHYVSSYYFDHWGKGTTVTVSS VL: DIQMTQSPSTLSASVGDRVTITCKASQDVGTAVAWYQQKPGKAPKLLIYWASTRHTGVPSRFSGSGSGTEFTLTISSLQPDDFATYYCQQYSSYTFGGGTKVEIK
3.25 nM

Pending binder:
input: Need EC50 of BG87P-24 (antibody, V domains shown) VH: QVQLVQSGAEVKKPGASVKVSCKASGYSFTDYHINWVRQAPGQRLEWMGWIYPGSGYTKYNEKFKGRVTLTRDTSASTAYMELSSLRSEDTAVYYCARSGIYHYVSSYYFDHWGKGTTVTVSS VL: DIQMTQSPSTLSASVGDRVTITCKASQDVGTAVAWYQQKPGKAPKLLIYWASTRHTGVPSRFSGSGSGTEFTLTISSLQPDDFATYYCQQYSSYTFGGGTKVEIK , thanks.
output: 2.27 nM
